- systemTested: T1, HTRA4, P83105
- T1 sequence (P83105 378-476, limits assumed, looked up): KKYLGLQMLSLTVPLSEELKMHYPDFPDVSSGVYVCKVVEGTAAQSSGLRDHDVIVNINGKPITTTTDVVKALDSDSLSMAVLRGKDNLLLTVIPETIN
- testProtocol: holdup assay
- Design: key: below the threshold = too weak to quantify, mostly under pKd 3.1 to 4
- runParameters: plain residues with an end cap or a label only (N-terminal biotin on a linker: ado-ado)
readoutKind: pKd

# binder, pKd
records = [
    ("QGLAERISVL [PRKD2, Q9BZL6]", 4.06),
    ("SSALYGESDL [ACTN2, P35609]", "below the threshold"),
    ("PAPSSGKDYV [CLDN1, O95832]", "below the threshold"),
    ("PRAEAEDSFL [PDGFRB, P09619]", 3.98),
]

# input for lookup
pKd lookup needed for KKMPSIESDV [GRIN2A, Q12879] , thanks.
below the threshold
